Can you tell me inhibition at 1 µM for the items I'm about to list?
- target desc: Tyk2 (Homo sapiens)
- Construct: purchased Invitrogen
- Sequence (P29597 whole entry): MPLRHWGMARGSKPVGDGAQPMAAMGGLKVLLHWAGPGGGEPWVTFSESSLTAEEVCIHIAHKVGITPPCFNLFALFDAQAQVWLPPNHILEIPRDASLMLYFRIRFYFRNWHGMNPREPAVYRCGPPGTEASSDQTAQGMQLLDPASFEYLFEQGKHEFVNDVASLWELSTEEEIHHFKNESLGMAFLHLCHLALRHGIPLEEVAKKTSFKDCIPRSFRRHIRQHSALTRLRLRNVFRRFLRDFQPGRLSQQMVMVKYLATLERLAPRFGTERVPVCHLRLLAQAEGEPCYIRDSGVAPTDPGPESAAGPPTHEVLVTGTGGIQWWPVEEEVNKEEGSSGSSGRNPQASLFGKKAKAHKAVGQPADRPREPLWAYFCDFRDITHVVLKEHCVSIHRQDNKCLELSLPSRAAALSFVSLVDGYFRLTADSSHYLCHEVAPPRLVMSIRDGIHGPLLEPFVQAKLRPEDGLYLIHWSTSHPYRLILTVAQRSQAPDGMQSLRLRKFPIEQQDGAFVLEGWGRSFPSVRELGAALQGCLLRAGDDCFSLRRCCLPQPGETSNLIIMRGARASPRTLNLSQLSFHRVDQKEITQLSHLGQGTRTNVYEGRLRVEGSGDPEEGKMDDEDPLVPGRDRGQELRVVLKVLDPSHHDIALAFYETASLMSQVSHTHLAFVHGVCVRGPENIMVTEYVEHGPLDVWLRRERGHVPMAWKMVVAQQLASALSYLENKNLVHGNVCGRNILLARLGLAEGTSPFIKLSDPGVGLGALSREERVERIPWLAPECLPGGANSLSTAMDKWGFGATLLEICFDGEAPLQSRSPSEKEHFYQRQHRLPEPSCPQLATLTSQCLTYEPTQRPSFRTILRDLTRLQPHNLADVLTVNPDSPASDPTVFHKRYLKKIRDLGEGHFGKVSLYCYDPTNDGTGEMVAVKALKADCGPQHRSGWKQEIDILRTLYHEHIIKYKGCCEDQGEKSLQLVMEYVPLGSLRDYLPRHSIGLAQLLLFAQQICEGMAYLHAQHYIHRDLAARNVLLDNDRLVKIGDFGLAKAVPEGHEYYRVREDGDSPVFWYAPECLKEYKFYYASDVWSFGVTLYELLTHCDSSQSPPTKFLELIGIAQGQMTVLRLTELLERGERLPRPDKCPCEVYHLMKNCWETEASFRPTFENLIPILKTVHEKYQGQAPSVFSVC
- protocol description: Tyk2 enzyme inhibition test (LANCE method)
- Type: biochemical
- test settings: 1 uM test compound, ULight-JAK1 peptide substrate, well without enzyme = 100% inhibition, read-out: Tyk2 enzyme inhibitory activity (%, 1 uM)

(Q) Endpoint output: inhibition at 1 µM of CC(C)C(C)n1cc(-c2ccn(C)n2)c2[nH]nc(N)c2c1=O (stereo not drawn) . Value?
(A) 98%

(Q) Endpoint output: inhibition at 1 µM of Nc1n[nH]c2c(-c3csc(CN4CCCC4)c3)cn(-c3ccccc3Cl)c(=O)c12 . Value?
(A) 95%

(Q) Endpoint output: inhibition at 1 µM of Cc1ccccc1-n1cc(Br)c2[nH]nc(N)c2c1=O . Value?
(A) 40%

(Q) Endpoint output: inhibition at 1 µM of Nc1n[nH]c2c(-c3ccccn3)cn(-c3ccccc3Cl)c(=O)c12 . Value?
(A) 98%

(Q) Endpoint output: inhibition at 1 µM of Cn1ccc(-c2cn(-c3c(F)cccc3F)c(=O)c3c(N)n[nH]c23)n1 . Value?
(A) 100%

(Q) Endpoint output: inhibition at 1 µM of CC1CCCCC1n1cc(-c2ccn(C)n2)c2[nH]nc(N)c2c1=O (stereo not drawn) . Value?
(A) 98%

(Q) Endpoint output: inhibition at 1 µM of N#Cc1ccnc(-c2cn(-c3ccccc3Cl)c(=O)c3c(N)n[nH]c23)c1 . Value?
(A) 100%

(Q) Endpoint output: inhibition at 1 µM of Cn1ccc(-c2cn(-c3ccccc3C(F)(F)F)c(=O)c3c(N)n[nH]c23)n1 . Value?
(A) 92%

(Q) Endpoint output: inhibition at 1 µM of N#Cc1cc2[nH]nc(N)c2c(=O)n1-c1ccccc1Cl . Value?
(A) 82%
